Tested on: human coronary artery smooth muscle cell
assay-remarks: in vitro cell culture study, coronary artery smooth muscle cell proliferation (trichostatin A)
Assay type: cell-based
cond: read-out: anti-proliferative IC50
measurement-label: IC50

Incoming: Consider the compound CC(/C=C/C(=O)NO)=C\[C@@H](C)C(=O)c1ccc(N(C)C)cc1 and give its recorded IC50.
Outgoing: ~6 nM
